method: inhibitors of TNFa-induced NFkB p65 translocation, primary screen, imaging, HUVEC, MLSMR starter and 10KST1 sets (AID 438);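 further: compound added about 3h40 before a 20 min TNFalpha stimulation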
measurement.context: HUVEC TNFa-induced p65 nuclear translocation; measured here: nuclei count (cytotoxicity indicator), at 2.08 µM
Listing: cell count of selected molecules

- molecule: "Cc1ccc(N2C(=O)c3sc4nnc(C)c(=O)n4c3C2=O)cc1"
  cell count: 637
- molecule: "CCC(C)NC(=O)C1c2cc(OC)c(OC)cc2C(=O)N(C)C1c1ccc(OC)cc1 (centres undefined)"
  cell count: 455
- molecule: "Cc1cccc(CCNC(=O)C2CCCN(S(=O)(=O)c3cnc[nH]3)C2)c1 (centres undefined)"
  cell count: 518
- molecule: "Cc1csc(NC(=O)c2cc3c(s2)-c2ccccc2OC3)n1"
  cell count: 417
- molecule: "COc1ccc(OC)c(S(=O)(=O)Nc2ccccc2SC)c1"
  cell count: 623
- molecule: "CC(O)CNc1nc2c(c(=O)n(C)c(=O)n2C)n1CCc1ccccc1 (centres undefined)"
  cell count: 710
- molecule: "Cc1cccc(NC(=O)CS(=O)(=O)c2cn(C)c3ccccc23)c1"
  cell count: 628
- molecule: "N#CCSc1nc2c(c(=O)n1Cc1ccco1)C1(CCCC1)Cc1ccccc1-2"
  cell count: 500
- molecule: "Cc1ccc(C)c(C(=O)CC2(O)C(=O)Nc3ccccc32)c1 (centres undefined)"
  cell count: 602
- molecule: "CCCCc1ccc(NC(=O)N[C@H](C(=O)O)C(C)C)cc1"
  cell count: 388
- molecule: "CCCCCc1c(C)nc(N2CCc3ccccc32)[nH]c1=O"
  cell count: 398
- molecule: "O=C(Nc1ccccn1)c1ccc(=O)[nH]n1"
  cell count: 634
- molecule: "Cc1cc2cc(CN(CCCN3CCOCC3)C(=O)NC3CCCCC3)c(=O)[nH]c2cc1C"
  cell count: 540
- molecule: "CS(=O)(=O)N1CCC(C(=O)NCCC2=CCCCC2)CC1"
  cell count: 427
- molecule: "COC(=O)c1c(O)ccc(Oc2ccccc2)c1C(=O)OC"
  cell count: 667
- molecule: "CCN(CC)S(=O)(=O)c1ccc(Br)c(OC)c1"
  cell count: 374
- molecule: "NC(=O)C1CCN(CCC(=O)Nc2ccc(Br)cc2)CC1"
  cell count: 619
- molecule: "COC(=O)CSCC(=O)Nc1cc2c(cc1C(C)=O)OCO2"
  cell count: 333
- molecule: "COc1ccc(C2CC(c3cccs3)n3nc(N)nc3N2)cc1 (centres undefined)"
  cell count: 619
- molecule: "CC1(C)CC(=O)C2=C(C1)OC(=O)C2(NC(=O)c1cccs1)C(F)(F)F (centres undefined)"
  cell count: 607
- molecule: "CCC(=O)NC1(C(F)(F)F)C(=O)Nc2c1c(=O)[nH]c(=O)n2Cc1ccco1 (centres undefined)"
  cell count: 652
- molecule: "COc1cccc(C2=CC(c3ccc(N(C)C)cc3)n3nnnc3N2)c1 (centres undefined)"
  cell count: 525
- molecule: "Cc1ccc(-c2nn(-c3ccccc3)cc2CN(Cc2ccccc2)C(=O)CCC(=O)O)o1"
  cell count: 329
- molecule: "Cc1ccc(CNc2cc(-c3nn4c(C)nnc4s3)ccc2C)s1"
  cell count: 679
- molecule: "CCOC(=O)NC1(C(F)(F)F)C(=O)NC(C)=C1C#N (centres undefined)"
  cell count: 377
- molecule: "CCSC1=C(C#N)C(c2cccs2)C(C(=O)OC)=C(C)N1 (centres undefined)"
  cell count: 704
- molecule: "CCN1CCN(CCCNC(=O)C2c3ccccc3C(=O)N(C)C2c2ccc(OC)cc2)CC1 (centres undefined)"
  cell count: 567
- molecule: "CC1CCN(c2[nH]c(=S)c(C#N)c3c2CCCC3)CC1"
  cell count: 383
- molecule: "CCOC(=O)CC(=O)CSc1nnc2sc3ccccc3n12"
  cell count: 493

Numbers sourced from PubChem BioAssay.
